Target: Left-right determination factor 2 (Homo sapiens)
Assay: LEFTY2 binders on small-molecule microarrays, primary screen, biochemical, small-molecule microarray, 635 nm fluorescence scan (AID 1110)
Details: LEFTY2 binding, higher = more signal
Class definitions on composite z-score: category 1 (below 0.4), category 2 (0.4 to below 0.6), category 3 (0.6 or more)

# Compound, Discrete Label
records = [
    ("COCCCNC(=O)[C@@]1(C)c2ccccc2C(=O)N(Cc2ccc(OC(F)(F)F)cc2)[C@H]1c1ccc(CO)cc1", "category 1"),
    ("COCCOC(=O)N1C(=O)[C@@]2(c3cc(C#CC4(O)CCCCCC4)ccc31)[C@H](C(=O)N1CCN(c3ncccn3)CC1)[C@H]1C(=O)O[C@H](c3ccccc3)[C@H](c3ccccc3)N1[C@@H]2c1ccc(OCCO)cc1", "category 2"),
    ("CC(=O)OC[C@H]1O[C@@H](ON=C(C)CCN2CCc3nc(-c4ccccc4)c(-c4ccccc4)cc3C2)[C@H](OC(C)=O)[C@@H](OC(C)=O)[C@@H]1OC(C)=O", "category 3"),
    ("CCOC(=O)C[C@H]1[C@H](OC(=O)c2cc3ccccc3oc2=O)[C@@H](NC(=O)c2ccc3ccccc3n2)c2cc(OCCCO)ccc2N1C(=O)c1ccccc1", "category 2"),
    ("Cc1cc2c(nc1C)CCCN2CC(C)ON=C1[C@H]2CCn3c(=O)n(-c4ccccc4)c(=O)n3[C@H]2[C@H](O)[C@@H]2O[C@H]12 (stereo not given in full)", "category 1"),
    ("C#C[C@@H]1Oc2ccccc2S(=O)(=O)N2CCC[C@H]12", "category 1"),
    ("COc1ccc(O[C@@H]2[C@H](O)CO[C@H]2C=CC#Cc2ccccc2)cc1", "category 1"),
    ("Cn1c(=O)n2n(c1=O)[C@H]1[C@H](O)[C@@H]3O[C@@H]3C(=NOC[C@@H](O)COCc3ccco3)[C@H]1CC2", "category 3"),
    ("CO[C@@H]1COC(=O)CC=C[C@@H](C)[C@H](OC)COC(=O)[C@H](COCc2ccccc2)NC(=O)CC=C[C@H]1C", "category 3"),
    ("CO[C@H]1COC(=O)[C@H](C)NC(=O)[C@@H](C)COC(=O)CC=C[C@@H]1C", "category 1"),
]

Let's switch to this compound now.
Prompt: Class for `CCOC(=O)C[C@H]1[C@H](OC(=O)c2ccc(C(=O)c3ccccc3)cc2)[C@@H](NC(=O)c2ccc(-c3ccccc3)cc2)c2cc(OCCCO)ccc2N1C(=O)c1ccc2ccccc2n1` ?
Completion: category 3

----------
Assay: yeast growth modulation, basal conditions, primary screen, YJM789 clinical isolate, OD600, 24 h (AID 1089);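 also: growth of clinical yeast isolate S. cerevisiae YJM 789 seeded 1000 cells per well; test concentration not given here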
Settings: S. cerevisiae YJM789 growth, higher = more signal, called active from +8 up or from −8 down
Please note: MET applies when z-score is -1 or greater, and NOT MET applies otherwise.

Use these answered entries as a reference point.
# Molecule, Discrete Label
measured = [
    ("O=C1C[C@@H](O)[C@@H](O)[C@@H]2[C@@H]3C(=O)N(Cc4ccc5c(c4)OCO5)C(=O)[C@@H]3CC[C@@H]12", "MET"),
    ("C#CCCCON=C1C[C@@H](O)[C@@H](O)[C@@H]2[C@@H]3C(=O)N(c4cccc(Oc5ccccc5)c4)C(=O)[C@@H]3CC[C@@H]12", "MET"),
    ("CN1C(=O)C2C=CC(C(O)C(c3ccccc3)c3ccccc3)N(NC(=O)OC(C)(C)C)C2C1=O (configuration not stated)", "NOT MET"),
    ("CC(C)C[C@@H]1NC(=O)[C@H]2C[C@@H](C(=O)NCCCCCCN(C)C)[C@@H](c3cccc(OCCO)c3)N2C1=O", "NOT MET"),
    ("O=C1[C@H]2[C@H]3[C@H](O)[C@H](O)CC(=NO[C@@H]4O[C@H](CO)[C@@H](O)[C@H](O)[C@H]4O)[C@@H]3CC[C@H]2C(=O)N1Cc1ccccc1", "MET"),
    ("C[C@H]1Cc2c(-c3ccccc3)nc3c(c2CO1)CN(CCOc1ccccc1)CC3", "MET"),
]

Let's switch to this molecule now.
Prompt: hey, is z-score for this one >= -1? `COC(=O)[C@@H]1N=C(c2ccc(OCCCO)cc2)O[C@@H]1c1ccccc1N=[N+]=[N-]`
Completion: NOT MET
